biological target: EGFR-L858R/C797S (H1975-clone #8 cells) (Homo sapiens, UniProt P00533, C797S/L858R); construct: expressed in transfected cells; host or cells: H1975 (endogenous EGFR knocked out, clone #8); test: Cell degradation of EGFR, HTRF assay, H1975-clone#8 (L858R/C797S) cells; type: cell-based; conditions: 16 h treatment, maximum percentage of degradation
Sequence (P00533 25-1210 C797S/L858R): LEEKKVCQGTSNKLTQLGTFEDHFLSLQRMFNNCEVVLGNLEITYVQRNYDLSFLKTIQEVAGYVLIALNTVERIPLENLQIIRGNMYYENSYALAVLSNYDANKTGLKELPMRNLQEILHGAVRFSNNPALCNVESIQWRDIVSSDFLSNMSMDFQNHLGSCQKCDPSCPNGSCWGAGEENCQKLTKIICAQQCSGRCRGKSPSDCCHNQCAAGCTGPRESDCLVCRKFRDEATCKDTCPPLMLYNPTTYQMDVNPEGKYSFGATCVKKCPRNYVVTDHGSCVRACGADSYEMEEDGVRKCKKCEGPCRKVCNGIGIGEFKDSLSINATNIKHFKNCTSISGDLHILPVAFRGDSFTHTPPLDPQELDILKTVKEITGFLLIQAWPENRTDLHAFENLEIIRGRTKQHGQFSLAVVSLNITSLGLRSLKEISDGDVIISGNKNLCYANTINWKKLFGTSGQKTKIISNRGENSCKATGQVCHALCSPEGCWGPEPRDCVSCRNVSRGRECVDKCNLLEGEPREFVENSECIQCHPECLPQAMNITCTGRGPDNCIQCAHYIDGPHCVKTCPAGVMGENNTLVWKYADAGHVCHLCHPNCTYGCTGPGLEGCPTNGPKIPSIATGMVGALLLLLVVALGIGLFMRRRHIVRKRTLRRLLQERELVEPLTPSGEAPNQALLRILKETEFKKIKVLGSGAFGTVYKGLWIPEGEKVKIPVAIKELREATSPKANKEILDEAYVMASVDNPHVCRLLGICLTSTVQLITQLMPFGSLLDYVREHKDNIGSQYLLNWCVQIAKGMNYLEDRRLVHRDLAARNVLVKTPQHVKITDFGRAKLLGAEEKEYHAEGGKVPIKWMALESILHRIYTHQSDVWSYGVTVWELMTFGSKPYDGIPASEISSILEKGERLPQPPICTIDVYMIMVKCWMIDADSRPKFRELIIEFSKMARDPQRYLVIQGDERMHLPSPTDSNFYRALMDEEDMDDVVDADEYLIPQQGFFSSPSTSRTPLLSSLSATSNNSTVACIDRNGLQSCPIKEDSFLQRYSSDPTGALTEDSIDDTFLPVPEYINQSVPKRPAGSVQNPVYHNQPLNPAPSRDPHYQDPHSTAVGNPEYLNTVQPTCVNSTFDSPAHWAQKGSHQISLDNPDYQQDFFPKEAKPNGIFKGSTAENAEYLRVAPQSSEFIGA
Criterion: Dmax strictly less than 80%. Met: YES. Not met: NO.

A selection of reference data follows.
[
  {
    "compound": "Cc1cc2cc(n1)-c1cnn(C)c1OC[C@H]1CCC(C1)CN1/C(=N/C2=O)Nc2ccc(N3CC4(CCN(C5CN(c6cc(F)c([C@H]7CCC(=O)NC7=O)c(F)c6)C5)CC4)C3)cc21 [Example 126]",
    "subject_of_test": "EGFR-L858R/C797S (H1975-clone #8 cells) (Homo sapiens, UniProt P00533, C797S/L858R)",
    "qualitative_label": "YES"
  },
  {
    "compound": "CCc1nn(C)c2c1-c1cc(cc(C)n1)C(=O)/N=C1\\Nc3ccc(N4CCN(C5CCN(c6cc(F)c([C@H]7CCC(=O)NC7=O)c(F)c6)CC5)[C@@H](COC)C4)cc3N1C[C@@H]1CC[C@H](CO2)C1 [Example 175]",
    "subject_of_test": "EGFR-L858R/C797S (H1975-clone #8 cells) (Homo sapiens, UniProt P00533, C797S/L858R)",
    "qualitative_label": "NO"
  },
  {
    "compound": "Cc1cc2cc(n1)-c1cnn(C)c1OC[C@H]1CC[C@H](C1)CN1/C(=N/C2=O)Nc2ccc(N3CCN(C4CCN(c5ccc(C6CCC(=O)NC6=O)nc5C)CC4)CC3)cc21 (stereo partly shown) [Example 2]",
    "subject_of_test": "EGFR-L858R/C797S (H1975-clone #8 cells) (Homo sapiens, UniProt P00533, C797S/L858R)",
    "qualitative_label": "YES"
  },
  {
    "compound": "COC[C@H]1CN(c2ccc3c(c2)N2C[C@@H]4CC[C@H](COc5c(c(C)nn5C)-c5cc(cc(C)n5)C(=O)/N=C/2N3)C4)CCN1C1CCN(c2ccc(NC3CCC(=O)NC3=O)cc2C)CC1 (stereo partly shown) [Example 207]",
    "subject_of_test": "EGFR-L858R/C797S (H1975-clone #8 cells) (Homo sapiens, UniProt P00533, C797S/L858R)",
    "qualitative_label": "NO"
  },
  {
    "compound": "Cc1cc2cc(n1)-c1cnn(C)c1OC[C@H]1CCC(C1)CN1/C(=N/C2=O)Nc2ccc(N3CC(N(C)C4CCN(c5cc(F)c([C@H]6CCC(=O)NC6=O)c(F)c5)CC4)C3)cc21 [Example 124]",
    "subject_of_test": "EGFR-L858R/C797S (H1975-clone #8 cells) (Homo sapiens, UniProt P00533, C797S/L858R)",
    "qualitative_label": "YES"
  }
]

State whether 80% exceeds Dmax recorded for Cc1cc2cc(n1)-c1c(C)nn(C)c1OC[C@H]1CC[C@H](C1)CN1/C(=N/C2=O)Nc2ccc(N3CCN(CC4CN(c5cc(F)c([C@H]6CCC(=O)NC6=O)c(F)c5)C4)[C@@H](CF)C3)cc21 [Example 210] .
NO

State whether 80% exceeds Dmax recorded for Cc1cc2cc(n1)-c1cnn(C)c1OC[C@H]1CCC(C1)CN1/C(=N/C2=O)Nc2ccc(N3CCN(C4CCN(c5ccc(NC6CCC(=O)NC6=O)cc5Cl)CC4)CC3)cc21 (stereo partly shown) [Example 103] .
NO

Numbers sourced from patent US20240425523A1.
